Origin of values: PubChem BioAssay (NCI)

# Test system: TK-10 renal
# assay.info: NCI tumour cell line growth inhibition, 48 h
Where a SMILES comes first, the peptide text is derived from it. The star is where a group is joined. CH2Cl = ClC*
Returns 1 if the recorded TGI is greater than or equal to 30 µM, and 0 otherwise.

Qu. Given the entry CCN(CC)CCn1c(=O)c2ccccc2n2c3c(=O)n(C)c(=O)n(C)c3nc12 , answer whether its TGI meets or surpasses 30 µM.
Ans. 1

Qu. Given the entry CNc1ccc(S(=O)Nc2ccc(OC)cc2)cc1 (stereo not drawn) , answer whether its TGI meets or surpasses 30 µM.
Ans. 1

Qu. Given the entry CN=c1oc2ccccc2cc1C(N)=O , answer whether its TGI meets or surpasses 30 µM.
Ans. 1

Qu. Given the entry COC(=O)c1c2c(c(C)[n+]([O-])c1C)C(=O)C(NCc1cccc(Cl)c1)=CC2=O , answer whether its TGI meets or surpasses 30 µM.
Ans. 0

Qu. Given the entry COC(=O)C(Cc1c[nH]c2ccccc12)NC(=O)C(Cc1c[nH]c2ccccc12)NC(=O)OCc1ccccc1 (stereo not drawn) , answer whether its TGI meets or surpasses 30 µM.
Ans. 1

Qu. Given the entry COc1cc(C(=O)C(CO)Oc2ccccc2OC)ccc1O (stereo not drawn) , answer whether its TGI meets or surpasses 30 µM.
Ans. 1

Qu. Given the entry O=c1ccc(N=Nc2ccccc2)ccc1Cl , answer whether its TGI meets or surpasses 30 µM.
Ans. 0

Qu. Given the entry COc1cc(/C=C/c2cccnc2)cc(OC)c1OC , answer whether its TGI meets or surpasses 30 µM.
Ans. 1

Qu. Given the entry CCCCSSC(=S)N(CC)CC , answer whether its TGI meets or surpasses 30 µM.
Ans. 1

Qu. Given the entry COC(=O)[C@@H]1CCCN1C(=O)[C@@H]1CCCN1C(=O)[C@H](Cc1ccccc1)NC(=S)Nc1cc(C(F)(F)F)cc(C(F)(F)F)c1 , answer whether its TGI meets or surpasses 30 µM.
Ans. 1

Qu. Given the entry COc1ccc(-c2cc3c(OC)c(OC)c(OC)cc3oc2=O)cc1 , answer whether its TGI meets or surpasses 30 µM.
Ans. 1

Qu. Given the entry Oc1ccc(/C=C/c2ccc(O)cc2)cc1 , answer whether its TGI meets or surpasses 30 µM.
Ans. 1

Qu. Given the entry CCOC(=O)NC(=O)c1cn(-c2ccc(CCOC(=O)NCCCCCCNC(=O)OCCc3ccc(-n4c(=O)[nH]cc(C(=O)NC(=O)OCC)c4=O)cc3)cc2)c(=O)[nH]c1=O , answer whether its TGI meets or surpasses 30 µM.
Ans. 1

Qu. Given the entry COc1ccc(/C=N/Nc2nc(N)nc(N3CCCC3)c2C#N)cc1 , answer whether its TGI meets or surpasses 30 µM.
Ans. 1

Qu. Given the entry COc1ccc(NCC#N)cc1 , answer whether its TGI meets or surpasses 30 µM.
Ans. 1

Qu. Given the entry CC(C)(Oc1ccc(C(=O)c2ccc(Cl)cc2)cc1Cl)C(=O)Nc1c(Cl)cccc1Cl , answer whether its TGI meets or surpasses 30 µM.
Ans. 1

Qu. Given the entry C=C(C)[C@@H]1CC[C@]2(COC(C)=O)CC[C@]3(C)[C@H](CC[C@@H]4[C@@]5(C)CCCN(C(C)=O)C(C)(C)[C@@H]5CC[C@]43C)[C@@H]12 , answer whether its TGI meets or surpasses 30 µM.
Ans. 0

Qu. Given the entry COc1ccc(N(CC(=O)O)S(=O)(=O)c2ccccc2)cc1 , answer whether its TGI meets or surpasses 30 µM.
Ans. 1

Qu. Given the entry CCCCN(CCCC)CC(O)c1ccc(OCc2ccccc2)c2ccccc12 (stereo not drawn) , answer whether its TGI meets or surpasses 30 µM.
Ans. 0

Qu. Given the entry COC(=O)C12C3C4C1C1C2C3C41C(=O)O (stereo not drawn) , answer whether its TGI meets or surpasses 30 µM.
Ans. 1

Qu. Given the entry C[C@]12CCc3nonc3C1CC[C@@H]1C2CC[C@]2(C)C(=O)/C(=N\O)CC12 (stereo partly drawn) , answer whether its TGI meets or surpasses 30 µM.
Ans. 1

Qu. Given the entry CC1(C)N([O-])[N+](=O)C1(C)Br (stereo not drawn) , answer whether its TGI meets or surpasses 30 µM.
Ans. 1

Qu. Given the entry CN(CCO)C1CCN(c2ccc(Nc3ncc4c5ccnc(F)c5n(C5CCCC5)c4n3)nc2)CC1 , answer whether its TGI meets or surpasses 30 µM.
Ans. 0

Qu. Given the entry Cc1cc(C)c2c(=O)cc(-c3cccc(Cl)c3)[nH]c2n1 , answer whether its TGI meets or surpasses 30 µM.
Ans. 1

Qu. Given the entry CCC#CCCCCCCCCC(F)C(=O)O (stereo not drawn) , answer whether its TGI meets or surpasses 30 µM.
Ans. 1

Qu. Given the entry CC(=O)NC(CC(C)C)C(=O)NC(Cc1ccccc1)C(=O)CCl (stereo not drawn) (Ac-Leu-Phe-CH2Cl; configuration not given here) , answer whether its TGI meets or surpasses 30 µM.
Ans. 0

Qu. Given the entry CCSc1ccc2c(c1)N(CCCN1CCN(C)CC1)c1ccccc1S2 , answer whether its TGI meets or surpasses 30 µM.
Ans. 0

Qu. Given the entry CC(=O)/C=C/CCC(=O)/C=C/C(=O)OC(CCC(=O)/C=C/C(=O)O)CC(C)=O (stereo not drawn) , answer whether its TGI meets or surpasses 30 µM.
Ans. 1

Qu. Given the entry CCC(/C=C(C)/C=C/C(=O)c1c(O)c(-c2ccc(O)cc2)c[nH]c1=O)CO (stereo not drawn) , answer whether its TGI meets or surpasses 30 µM.
Ans. 1

Qu. Given the entry CC1=C(C(=O)Nc2ccc(Cl)c(Cl)c2)C(c2ccccc2Cl)NC(=S)N1 (stereo not drawn) , answer whether its TGI meets or surpasses 30 µM.
Ans. 0

Qu. Given the entry Cn1cnc([N+](=O)[O-])c1Sc1nc2ncccc2[nH]1 , answer whether its TGI meets or surpasses 30 µM.
Ans. 1

Qu. Given the entry Cc1ccc(Nc2nc3c(s2)C(=O)c2ccccc2C3=O)cc1 , answer whether its TGI meets or surpasses 30 µM.
Ans. 0

Qu. Given the entry Cc1nn(-c2ccccc2)c(-n2ccnc2)c1/C=N/Nc1nc(-c2ccc(Cl)c(Cl)c2)cs1 , answer whether its TGI meets or surpasses 30 µM.
Ans. 1

Qu. Given the entry C=CC(O)C#Cc1cnc(OC)nc1OC (stereo not drawn) , answer whether its TGI meets or surpasses 30 µM.
Ans. 1

Qu. Given the entry CC1(C)[C@@H](Cn2nnc3c(N)ncnc32)CC[C@@]1(C)CO , answer whether its TGI meets or surpasses 30 µM.
Ans. 1

Qu. Given the entry Cc1ccc(N=NC(=O)NNc2ccc(C)c([N+](=O)[O-])c2)cc1[N+](=O)[O-] , answer whether its TGI meets or surpasses 30 µM.
Ans. 1

Qu. Given the entry CCN(CC)c1ncnc2c1ncn2CCNC(CO)(CO)CO , answer whether its TGI meets or surpasses 30 µM.
Ans. 1

Qu. Given the entry COc1cccc(NC(=O)CC(=O)Nc2cccc(OC)c2)c1 , answer whether its TGI meets or surpasses 30 µM.
Ans. 1

Qu. Given the entry CCN(CCCNC(=O)Cc1cc(=O)oc2cc(N(C)C)ccc12)CCNc1ccnc2cc(Cl)ccc12 , answer whether its TGI meets or surpasses 30 µM.
Ans. 0

Qu. Given the entry NC(=O)c1ncn2c1NCC1OC2C(O)C1O (stereo not drawn) , answer whether its TGI meets or surpasses 30 µM.
Ans. 1

Qu. Given the entry Cc1nc(C(N)=S)sc1C(=O)CC(=O)C(=O)Nc1c(C(C)C)cccc1C(C)C , answer whether its TGI meets or surpasses 30 µM.
Ans. 1

Qu. Given the entry O=CC(NC(=O)N(CCCl)N=O)C(O)C(O)C(O)CO (stereo not drawn) , answer whether its TGI meets or surpasses 30 µM.
Ans. 1
